Property: melting point

Some compounds with recorded melting point:
Entry smiles: CC(C)(C)OC(=O)n1c(-c2ccccc2)cc2c(F)cccc21
Property: melting point
Reported result: 121 to 122 °C
--
Entry smiles: COc1cccc2c1cc(-c1ccccc1)n2C(=O)OC(C)(C)C
Property: melting point
Reported result: 81 to 82 °C
--
Entry smiles: CC(C)(C)OC(=O)n1c(-c2ccccc2)cc2ccc(Cl)cc21
Property: melting point
Reported result: 61 to 62 °C
--
Entry smiles: CC(C)(C)OC(=O)n1c(-c2ccccc2)cc2c(Cl)cccc21
Property: melting point
Reported result: 111 to 112 °C
--
Entry smiles: CC(C)(C)OC(=O)n1c(-c2ccc3ccccc3c2)cc2ccccc21
Property: melting point
Reported result: 134 to 135 °C
--
Entry smiles: CC(C)(C)OC(=O)n1c(-c2ccc(Cl)cc2)cc2ccccc21
Property: melting point
Reported result: 86 to 87 °C
--
Entry smiles: CC(C)(C)OC(=O)n1c(-c2ccccc2)cc2ccc(Br)cc21
Property: melting point
Reported result: 54 to 55 °C
--
Entry smiles: CC(C)(C)OC(=O)n1c(-c2ccccc2)cc2ccc(C(F)(F)F)cc21
Property: melting point
Reported result: 104 °C

I'm hoping you can list melting point for every compound here, please.
1. Cc1ccc2cc(-c3ccccc3)n(C(=O)OC(C)(C)C)c2c1
2. CC(C)(C)OC(=O)n1c(-c2ccc(C(F)(F)F)cc2)cc2ccccc21
3. CC(C)(C)OC(=O)n1c(-c2ccc(Br)cc2)cc2ccccc21
4. CC(C)(C)OC(=O)n1c(-c2ccccc2)cc2ccccc21
5. Cc1c(-c2ccccc2)n(C(=O)OC(C)(C)C)c2ccccc12
6. COc1ccc(-c2cc3ccccc3n2C(=O)OC(C)(C)C)cc1

stdout:
62 to 64 °C
108 to 109 °C
88 to 89 °C
70 to 72 °C
110 to 112 °C
89 to 90 °C
